test system: K. pneumoniae; test: AK assay 384-well format, Prestwick library screening; assay type: cell-based, Klebsiella pneumoniae; conditions: Klebsiella pneumoniae, 3 h; planktonic K. pneumoniae; 50 μM final drug concentration; positive cutoff 3-fold increase; read-out: AK-based Prestwick library screening result, K. pneumoniae (fold increase in extracellular AK activity)
assay-endpoint: fold induction at 50 µM
Answer with a number only.

Task: Fill in fold induction at 50 µM for record CCC(=O)[C@@]1(C)[C@H](C)C[C@H]2[C@@H]3CCC4=CC(=O)C=C[C@]4(C)[C@H]3[C@@H](O)C[C@@]21C [Rimexolone]
Output: 0.8

Task: Fill in fold induction at 50 µM for record CN[C@@H]1[C@@H](O[C@H]2O[C@H](CO)[C@@H](N)[C@H](O)[C@H]2O)OC2C[C@@H](N)[C@@H](O[C@H]3[C@H](O)[C@@H](O)[C@H](N)C[C@@H]3N)OC2[C@@H]1O (stereo partly drawn) [Apramycin]
Output: 0.8

Task: Fill in fold induction at 50 µM for record C[C@]12CC[C@@H]3c4ccc(O)cc4CC[C@H]3[C@@H]1C[C@@H](O)[C@@H]2O [Estriol]
Output: 0.8

Origin of measurements: patent US10004701B2
